- Measurement Protocol: NCI Yeast Anticancer Drug Screen. Data for the bub3 strain (AID 167)
- Run Conditions: S. cerevisiae bub3 mutant strain, at 50.0 µM, hits give high values
- Method: Growth inhibition of yeast strains with defined genetic alterations is measured as a screen for potential anti-cancer activity. Selected strains with alterations in DNA damage repair or cell cycle control were exposed to compounds and growth inhibition was measured relative to vehicle treated controls. The strain used in this assay is bub3
Compounds without any hit were thinned out: in the full panel of roughly 79,000, 15% have a hit. The source made the active and inactive calls. Rule as the data show it: active = growth inhibition above about 70%; inactive = the rest.
Measured Parameter: growth inhibition

Example entries begin here.
Compound | growth inhibition
COc1cc2cccc(N=Cc3cccc(OC)c3OC(C)C)c2cc1OC | -4.6% (inactive)
OC(c1ccccc1)C(CN1CCCCC1)c1ccccc1 (stereo not drawn) | 4.95% (inactive)
Cc1ccc(N=CC=C2C=CN(O)C=C2)nc1 | -19.1% (inactive)
O=C(Nc1ccccc1)Oc1ccc(/C=N/Sc2cccc([N+](=O)[O-])c2)cc1 | 73.8% (active)
CCOC(=O)CCCC(=O)N(CC(=O)OCC)Cc1ccccc1 | 5% (inactive)

## Input Specify growth inhibition for NC(CSSCC(N)=NC1CCCCC1)=NC1CCCCC1 and stop.
## Output -1.45% (inactive)

## Input Specify growth inhibition for C#CCOc1ccc(C(F)(F)F)cc1 and stop.
## Output 15.4% (inactive)

## Input Specify growth inhibition for CCCC(=O)N(CC)CC and stop.
## Output 0% (inactive)

## Input Specify growth inhibition for CC1=Nc2ccc(C)cc2N=C(C)C1 and stop.
## Output 22.4% (inactive)

## Input Specify growth inhibition for N#CC(C#N)=C(O)/C(=C/c1ccc(Cl)cc1Cl)NC(=O)c1ccccc1 and stop.
## Output -13.3% (inactive)

## Input Specify growth inhibition for CN1N=C2c3ccccc3OC(c3ccccc3)[C@H]2C1c1ccccc1 (stereo partly drawn) and stop.
## Output -61.4% (inactive)

## Input Specify growth inhibition for COC1OC(CO)C(O)C(NC(=O)[C@H](Cc2ccccc2)NC(=O)OCc2ccccc2)C1O (stereo partly drawn) and stop.
## Output 0.45% (inactive)

## Input Specify growth inhibition for CCCCCCCCCCCCCCCCn1cnc2c(=S)nc[nH]c21 and stop.
## Output 0.5% (inactive)

----------
- Measurement Protocol: NCI Yeast Anticancer Drug Screen. Data for the sgs1 mgt1 strain (AID 161);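 also: 0% = growth of cultures given vehicle only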
- Run Conditions: S. cerevisiae sgs1 mgt1 strain, at 50.0 µM
About 79,000 compounds went through this panel and 15% of them were active in at least one assay; those are over-represented in the sample as a whole. The source made the active and inactive calls. Cut-off read from the data, not from the text of the source: active = growth inhibition above about 70%; inactive = the rest.
Valid outcomes are listed here; reply with one: label 1 for active, label 0 for inactive

Molecule | Qualitative Label
Nc1c(C(=O)O)cccc1C(=O)O | label 0
S=c1nc(NCc2ccccc2)[nH]c2[nH]ncc12 | label 0
Cc1cccc(NC(=O)c2cccc([N+](=O)[O-])c2O)c1C | label 0
CC1=CC(=N/S(=O)(=O)c2ccccc2)/C2CC(C)=C(C)CC2/C1=N\S(=O)(=O)c1ccccc1 (centres undefined) | label 1

## Input Look up the recorded call for Cc1cc(C)[n+]([O-])c(C)c1 in this test.
## Output label 0

## Input Look up the recorded call for CC1=CC(=O)C(=CN2C(=O)/C(=C\c3cccnc3)NC2=S)C(=O)O1 in this test.
## Output label 0

## Input Look up the recorded call for c1ccc(-c2cc(-c3ccccc3)c(-c3ccccc3)c(-c3ccccc3)c2)cc1 in this test.
## Output label 0

## Input Look up the recorded call for Nc1ncnc2c1ncn2C(=O)NC12CC3CC(CC(C3)C1)C2 in this test.
## Output label 0

## Input Look up the recorded call for Cc1ccc(S(=O)(=O)OCC(c2ccc(Cl)cc2)c2ccccc2Cl)cc1 (centres undefined) in this test.
## Output label 0

## Input Look up the recorded call for COC(=O)c1ccccc1NC(=O)/C(=N\NC(C)(C)C)C(C#N)c1nc(-c2ccc([N+](=O)[O-])cc2)cs1 (centres undefined) in this test.
## Output label 0

## Input Look up the recorded call for CC(=O)N(CN1C(=O)CCC1C(=O)O)c1ccccc1 (centres undefined) in this test.
## Output label 0
